Measurement Label: logP
Respond using a number only.

Consider the compound shown here: CC(C)NCC(O)c1ccc(Cl)c(Cl)c1 (stereo unspecified) What is its recorded logP? 3.32

----------
test: method code SF, from DOI: 10.1248/cpb.33.282, PMID: 4006019; conditions: pH 1.0
Measurement Label: logD
# output: bare number, no unit

# logD lookup, item CCCCCC(=O)N(C)CC(=O)O 1.14

----------
Measurement Label: logP
Write no unit; give the number alone.

INSERT INTO assay_data (compound_structure_string, measurement_label, recorded_value) VALUES
  ('C[C@]12CC[C@@H]3c4ccc(O)cc4CC[C@H]3[C@@H]1C[C@@H](O)[C@@H]2O', 'logP', 2.45);

Attention now turns to another entry.
For the compound shown here, CC(=O)[C@H]1CC[C@H]2[C@@H]3CC=C4C[C@@H](O)CC[C@]4(C)[C@H]3CC[C@]12C , give the reported logP. 4.22
